# STUDY TARGET: T1, mouse MAdCAM protein (mouse, UniProt Q61826 22-365, limits assumed)
# T1 construct: also called recombinant mouse MAdCAM-1; mMAdCAM-1
# T1 sequence (looked up): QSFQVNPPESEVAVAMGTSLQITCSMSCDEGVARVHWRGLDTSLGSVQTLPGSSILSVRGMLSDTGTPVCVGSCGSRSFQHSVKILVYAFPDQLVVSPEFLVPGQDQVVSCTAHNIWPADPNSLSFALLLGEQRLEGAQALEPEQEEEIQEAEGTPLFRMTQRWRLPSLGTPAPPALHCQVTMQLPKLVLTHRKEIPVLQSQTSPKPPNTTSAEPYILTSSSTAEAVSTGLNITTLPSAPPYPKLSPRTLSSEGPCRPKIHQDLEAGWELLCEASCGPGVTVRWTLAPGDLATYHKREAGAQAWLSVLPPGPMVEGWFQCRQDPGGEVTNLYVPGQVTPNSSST
# ASSAY NAME: Octet
MEASURE: binding result

[
  {
    "BINDER": "MAdCAM antibody Clone ID 75 of Table 7 (IgG) (antibody, V domains shown, IgG format) VH: EVQLLESGGGLVQPGGSLRLSCAASGFTFSDFWMHWVRQAPGKGLEWISYISGDSGYTNYADSVKGRFTISRDNSKNTLYLQMNSLRAEDTAVYYCARDRPYYYYMDVWGKGTTVTVSS VL: DIQMTQSPSSLSASVGDRVTITCRASQSVSRSLAWYQQKPGKAPKLLIYAASSLQSGVPSRFSGSGSGTDFTLTISSLQPEDFATYYCQQYKSYPVTFGQGTKVEIK",
    "MEASURE": "binding result",
    "RECORDED MEASUREMENT": "binds"
  },
  {
    "BINDER": "MAdCAM antibody Clone ID 14 of Table 7 (IgG) (antibody, V domains shown, IgG format) VH: QVQLVQSGAEVKKPGSSVKVSCKASGYTFTNYYMHWVRQAPGQGLEWMGGIIPIVDGVKYAQKFQGRVTITADESTSTAYMELSSLRSEDTAVYYCAKGQFTGNYYYGMDYWGQGTLVTVSS VL: DIQMTQSPSSLSASVGDRVTITCQANQDISNYLNWYQQKPGKAPKLLIYRASKLEAGVPSRFSGSGSGTDFTLTISSLQPEDFATYYCQQSSEIPYSFGQGTKVEIK",
    "MEASURE": "binding result",
    "RECORDED MEASUREMENT": "no binding"
  },
  {
    "BINDER": "MAdCAM antibody Clone ID 65 of Table 7 (IgG) (antibody, V domains shown, IgG format) VH: QVQLVQSGAEVKKPGASVKVSCKASGYTFTSYDINWVRQAPGQGLEWMGWMNPNSGNTGYAQKFQGRVTMTRDTSTSTVYMELSSLRSEDTAVYYCAKDSDYSNLLWDYWGQGTLVTVSS VL: DIQMTQSPSSLSASVGDRVTITCRASQDITNDLGWYQQKPGKAPKLLIYQASSLESGVPSRFSGSGSGTDFTLTISSLQPEDFATYYCQQSYTIPLTFGQGTKVEIK",
    "MEASURE": "binding result",
    "RECORDED MEASUREMENT": "no binding"
  }
]
